System: MEC-1 cells
Procedure text: MEC-1 cell line apoptosis, viability, MCL-1/BCL-2 and cell cycle (flow cytometry)
Type: cell-based
Test settings: Homo sapiens, MEC1; 48 hours incubation; read-out: IC50, MEC-1 absolute viable cell numbers

- Chem smiles: "COc1cc(F)ccc1-c1ncnc(Nc2cccc(CS(N)(=O)=O)c2)n1"
  U: "nM"
  IC50: 550

* * *

Tested system: CDK7-Cyclin H-MAT1 (Homo sapiens)
Sequence (P50613 whole entry): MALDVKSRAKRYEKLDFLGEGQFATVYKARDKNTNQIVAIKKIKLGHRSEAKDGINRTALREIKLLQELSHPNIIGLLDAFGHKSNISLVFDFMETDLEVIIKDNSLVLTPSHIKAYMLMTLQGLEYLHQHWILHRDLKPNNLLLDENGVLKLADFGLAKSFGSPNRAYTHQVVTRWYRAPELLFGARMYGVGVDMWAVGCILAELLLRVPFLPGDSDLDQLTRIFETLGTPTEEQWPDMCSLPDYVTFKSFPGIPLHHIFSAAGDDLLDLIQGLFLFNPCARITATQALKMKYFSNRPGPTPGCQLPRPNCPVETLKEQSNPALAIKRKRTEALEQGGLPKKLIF
Sequence (P51946 whole entry partner): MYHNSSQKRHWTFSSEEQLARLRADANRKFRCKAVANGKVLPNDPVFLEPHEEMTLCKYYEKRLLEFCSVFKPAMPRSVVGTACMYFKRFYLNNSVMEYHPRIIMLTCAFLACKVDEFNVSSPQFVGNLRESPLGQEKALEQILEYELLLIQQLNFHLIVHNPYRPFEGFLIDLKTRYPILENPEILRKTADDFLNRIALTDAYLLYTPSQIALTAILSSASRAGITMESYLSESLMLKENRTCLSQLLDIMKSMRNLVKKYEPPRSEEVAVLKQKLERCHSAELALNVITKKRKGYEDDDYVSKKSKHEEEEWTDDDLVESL
Sequence (P51948 whole entry partner): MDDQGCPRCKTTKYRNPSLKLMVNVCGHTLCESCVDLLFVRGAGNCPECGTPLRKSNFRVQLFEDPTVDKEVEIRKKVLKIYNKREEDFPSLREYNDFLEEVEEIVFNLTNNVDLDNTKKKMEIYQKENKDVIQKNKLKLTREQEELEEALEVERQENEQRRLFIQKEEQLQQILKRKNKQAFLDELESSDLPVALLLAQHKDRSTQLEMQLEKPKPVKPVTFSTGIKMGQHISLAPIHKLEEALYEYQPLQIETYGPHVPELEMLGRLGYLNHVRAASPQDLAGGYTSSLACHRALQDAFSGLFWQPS
pIC50: −log10 of the molar value.
Readout name: pIC50

- Chem smiles: "COc1cc(F)ccc1-c1ncnc(Nc2cccc(CS(N)(=O)=O)c2)n1"
  Val: "< 5.00"

* * *

Tested system: CDK6-Cyclin D3 (Homo sapiens)
Sequence (Q00534 whole entry): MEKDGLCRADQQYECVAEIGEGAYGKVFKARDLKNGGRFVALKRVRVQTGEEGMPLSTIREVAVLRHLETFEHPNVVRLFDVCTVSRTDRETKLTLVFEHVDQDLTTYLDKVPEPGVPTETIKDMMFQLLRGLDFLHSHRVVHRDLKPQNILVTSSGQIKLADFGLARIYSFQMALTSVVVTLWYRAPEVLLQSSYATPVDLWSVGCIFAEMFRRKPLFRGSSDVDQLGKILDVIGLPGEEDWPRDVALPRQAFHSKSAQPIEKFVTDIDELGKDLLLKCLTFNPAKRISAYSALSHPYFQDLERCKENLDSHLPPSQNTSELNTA
Sequence (P30281 whole entry partner): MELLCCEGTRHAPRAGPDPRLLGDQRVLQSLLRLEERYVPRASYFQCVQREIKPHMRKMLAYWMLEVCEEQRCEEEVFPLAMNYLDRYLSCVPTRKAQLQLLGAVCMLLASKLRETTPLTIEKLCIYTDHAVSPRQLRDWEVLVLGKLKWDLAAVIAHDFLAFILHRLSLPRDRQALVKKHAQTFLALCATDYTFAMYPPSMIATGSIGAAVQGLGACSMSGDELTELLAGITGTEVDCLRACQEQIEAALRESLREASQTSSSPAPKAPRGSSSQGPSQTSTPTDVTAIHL

- Chem smiles: "COc1cc(F)ccc1-c1ncnc(Nc2cccc(CS(N)(=O)=O)c2)n1"
  IC50: "> 10 µM"
